Species on record: Rattus norvegicus
Assay: Open TG-GATES - Regimen: Daily Repeat
Type: toxicity, organism-based, Sprague-Dawley
Design: regimen Daily Repeat, gender Male, age 6 weeks
Conditions: in vivo, po, 100 mg/kg, […], tissue Plasma, route gavage, dose level Low, time 14 day
Item-by-item account of RALB
Expressed in g/dL, but write only the number.

# COMPOUND, RALB (g/dL)
measured = [
    ("CCN1CCCC1CNC(=O)c1cc(S(N)(=O)=O)ccc1OC (centres undefined) [SULPIRIDE]", 2.7),
    ("CC(C)(S)[C@@H](N)C(=O)O", 2.8),
    ("O=C(O)c1cccnc1", 3),
]

q: I am curious: what RALB value has been reported for `O=C(N[C@H](CO)[C@H](O)c1ccc([N+](=O)[O-])cc1)C(Cl)Cl` ?
a: 2.6

###

Organism: Rattus norvegicus
Experiment: Open TG-GATES - Regimen: Daily Repeat
Format: toxicity, organism-based, Sprague-Dawley
Set-up: regimen Daily Repeat, gender Male, age 6 weeks
Settings: in vivo, po, 300 mg/kg, 72 h, tissue Blood, route gavage, dose level Middle, time 3 day
MEASURED_ENDPOINT: Ht
Value and unit, in that order.

Worked examples follow.
# COMPOUND, Ht
rows = [
    ("CC(C)(S)[C@@H](N)C(=O)O", "42.2%"),
    ("CCN1CCCC1CNC(=O)c1cc(S(N)(=O)=O)ccc1OC (centres undefined) [SULPIRIDE]", "40.9%"),
    ("O=C(N[C@H](CO)[C@H](O)c1ccc([N+](=O)[O-])cc1)C(Cl)Cl", "40.8%"),
]

Then this compound:
q: Returns the measured Ht for the input compound. Input: `O=C(O)c1cccnc1`
a: 40.2%

###

Species: Rattus norvegicus
Experiment: Open TG-GATES - Regimen: Daily Repeat
Format: toxicity, organism-based, Sprague-Dawley
Parameters: regimen Daily Repeat, gender Male, age 6 weeks
Conditions: in vivo, po, 300 mg/kg, […], tissue Plasma, route gavage, dose level Middle, time 28 day
MEASURED_ENDPOINT: PL (mg/dL)
Write down the numeric answer in mg/dL and omit the unit.

# COMPOUND, UNIT_OF_MEASUREMENT, PL
data = [
    ("O=C(O)c1cccnc1 [NIACIN]", "mg/dL", 140.4),
    ("CC(C)(S)[C@@H](N)C(=O)O [PENICILLAMINE]", "mg/dL", 147),
    ("O=C(N[C@H](CO)[C@H](O)c1ccc([N+](=O)[O-])cc1)C(Cl)Cl [CHLORAMPHENICOL]", "mg/dL", 141),
]

Please look at the following compound next.
q: Fill blank: measured PL of the compound CCN1CCCC1CNC(=O)c1cc(S(N)(=O)=O)ccc1OC (centres undefined) [SULPIRIDE] is ____.
a: 125.4

###

Species: Rattus norvegicus
Test: Open TG-GATES - Regimen: Daily Repeat
Type: toxicity, organism-based, Sprague-Dawley
Parameters: regimen Daily Repeat, gender Male, age 6 weeks
Conditions: in vivo, po, 1000 mg/kg, […], tissue Blood, route gavage, dose level High, time 7 day
MEASURED_ENDPOINT: Fbg (mg/dL)
Report as a plain number; the unit mg/dL is understood.

Worked examples follow.
# COMPOUND, VALUE_REPORTED
data = [
    ("CC(C)(S)[C@@H](N)C(=O)O", 452.4),
    ("CCN1CCCC1CNC(=O)c1cc(S(N)(=O)=O)ccc1OC (centres undefined) [SULPIRIDE]", 288),
    ("O=C(O)c1cccnc1", 325.4),
]

Next:
q: Reported Fbg for `O=C(N[C@H](CO)[C@H](O)c1ccc([N+](=O)[O-])cc1)C(Cl)Cl` : what is it?
a: 339.2
